- Test system: 323965-272-R-J2-PDC complex spheroid viability
- PROCEDURE_TEXT: Anticancer human tumor 323965-272-R-J2-PDC patient-derived pancreatic carcinoma cell line growth inhibition [CLK]
- TEST_PARAMETERS: second compound 0.1 µM; first compound 0.316 µM; active compounds read low
MEASURED_METRIC: viability, T/C (%)

INSERT INTO results (compound, result_number) VALUES
  ('CC(CO)NC(=O)c1cc(-c2ccc(Cl)cc2)nn(-c2cnn(C)c2)c1=O (stereo not drawn) + CNC(=O)c1ccc(Nc2nc(OC3CCCC3)c3c(-c4ccc5nc(C)oc5c4)c[nH]c3n2)c(OC)c1', 76.5),
  ('CC(Nc1ccc2c(c1)OCCn1cc(N3C(=O)OCC3C(F)F)nc1-2)C(N)=O (stereo not drawn) + CN1CCN(c2cc(C(=O)Nc3cc4cc(-c5cnn(C)c5)ccc4cn3)ccn2)CC1', 50),
  ('O=c1[nH]cc(F)c(=O)[nH]1 + CN1CCN(c2cc(C(=O)Nc3cc4cc(-c5cnn(C)c5)ccc4cn3)ccn2)CC1', 73.5);

====

// values below are reported viability, T/C
- Test system: 323965-272-R-J2-PDC complex spheroid viability
- PROCEDURE_TEXT: Anticancer human tumor 323965-272-R-J2-PDC cell line growth inhibition [CLK];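 further: spheroids exposed to agents for seven days before readout; percent of DMSO vehicle control wells so 100% = untreated growth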
- TEST_PARAMETERS: second compound 3.16 µM; first compound 0.1 µM; active compounds read low
MEASURED_METRIC: viability, T/C (%)

INSERT INTO measurements (molecule, measured_metric, result_number) VALUES
  ('COc1cccc2c1C(=O)c1c(O)c3c(c(O)c1C2=O)CC(O)(C(=O)CO)CC3OC1CC(N)C(O)C(C)O1 (stereo not drawn) + CNC(=O)c1ccc(Nc2nc(OC3CCCC3)c3c(-c4ccc5nc(C)oc5c4)c[nH]c3n2)c(OC)c1', 'viability, T/C', 30.9),
  ('COc1c(OCCCN2CCOCC2)ccc2c3n(c(=NC(=O)c4cnc(N)nc4)nc12)CCN3 + CNC(=O)c1ccc(Nc2nc(OC3CCCC3)c3c(-c4ccc5nc(C)oc5c4)c[nH]c3n2)c(OC)c1', 'viability, T/C', 19.4),
  ('COc1cccc2c1C(=O)c1c(O)c3c(c(O)c1C2=O)CC(O)(C(=O)CO)CC3OC1CC(N)C(O)C(C)O1 (stereo not drawn) + CN1CCN(c2cc(C(=O)Nc3cc4cc(-c5cnn(C)c5)ccc4cn3)ccn2)CC1', 'viability, T/C', 4.05);

====

// values below are reported viability, T/C
- System: 323965-272-R-J2-PDC complex spheroid viability
- PROCEDURE_TEXT: Anticancer human tumor 323965-272-R-J2-PDC cell line growth inhibition [CLK];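 further: spheroids exposed to agents for seven days before readout; percent of DMSO vehicle control wells so 100% = untreated growth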
- TEST_PARAMETERS: second compound 0.316 µM; first compound 0.0949 µM; active compounds read low
MEASURED_METRIC: viability, T/C (%)

INSERT INTO measurements (compound, tested_on, measured_metric, result_number) VALUES
  ('CC(C)CC(NC(=O)C(Cc1ccccc1)NC(=O)c1cnccn1)B(O)O (stereo unspecified) + CNC(=O)c1ccc(Nc2nc(OC3CCCC3)c3c(-c4ccc5nc(C)oc5c4)c[nH]c3n2)c(OC)c1', '323965-272-R-J2-PDC complex spheroid viability', 'viability, T/C', 0.61),
  ('NC(=O)C(=Cn1cnc(-c2cc(C(F)(F)F)cc(C(F)(F)F)c2)n1)c1cncnc1 + CN1CCN(c2cc(C(=O)Nc3cc4cc(-c5cnn(C)c5)ccc4cn3)ccn2)CC1', '323965-272-R-J2-PDC complex spheroid viability', 'viability, T/C', 20.3),
  ('C=CC(=O)Nc1cc(Nc2nccc(-c3cn(C)c4ccccc34)n2)c(OC)cc1N(C)CCN(C)C + CN1CCN(c2cc(C(=O)Nc3cc4cc(-c5cnn(C)c5)ccc4cn3)ccn2)CC1', '323965-272-R-J2-PDC complex spheroid viability', 'viability, T/C', 17.7),
  ('CC(C)CC(NC(=O)C(Cc1ccccc1)NC(=O)c1cnccn1)B(O)O (stereo unspecified) + CN1CCN(c2cc(C(=O)Nc3cc4cc(-c5cnn(C)c5)ccc4cn3)ccn2)CC1', '323965-272-R-J2-PDC complex spheroid viability', 'viability, T/C', 0.18),
  ('C=CC(=O)Nc1cc(Nc2nccc(-c3cn(C)c4ccccc34)n2)c(OC)cc1N(C)CCN(C)C + CNC(=O)c1ccc(Nc2nc(OC3CCCC3)c3c(-c4ccc5nc(C)oc5c4)c[nH]c3n2)c(OC)c1', '323965-272-R-J2-PDC complex spheroid viability', 'viability, T/C', 40.5),
  ('NC(=O)C(=Cn1cnc(-c2cc(C(F)(F)F)cc(C(F)(F)F)c2)n1)c1cncnc1 + CNC(=O)c1ccc(Nc2nc(OC3CCCC3)c3c(-c4ccc5nc(C)oc5c4)c[nH]c3n2)c(OC)c1', '323965-272-R-J2-PDC complex spheroid viability', 'viability, T/C', 64.7);

====

- Tested on: 323965-272-R-J2-PDC complex spheroid viability
- PROCEDURE_TEXT: Anticancer human tumor 323965-272-R-J2-PDC cell line growth inhibition [CLK];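 further: spheroids exposed to agents for seven days before readout; percent of DMSO vehicle control wells so 100% = untreated growth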
- TEST_PARAMETERS: second compound 0.1 µM; first compound 0.1 µM; active compounds read low
Sorting guide: entries reporting viability, T/C beneath 60% go in the true pile, the rest go in the false pile.

INSERT INTO results (compound, tested_on, group_label) VALUES
  ('COc1cccc2c1C(=O)c1c(O)c3c(c(O)c1C2=O)CC(O)(C(=O)CO)CC3OC1CC(N)C(O)C(C)O1 (stereo not given) + CNC(=O)c1ccc(Nc2nc(OC3CCCC3)c3c(-c4ccc5nc(C)oc5c4)c[nH]c3n2)c(OC)c1', '323965-272-R-J2-PDC complex spheroid viability', 'true'),
  ('CC1COCCN1c1cc(C2(S(C)(=N)=O)CC2)nc(-c2ccnc3[nH]ccc23)n1 (stereo not given) + CNC(=O)c1ccc(Nc2nc(OC3CCCC3)c3c(-c4ccc5nc(C)oc5c4)c[nH]c3n2)c(OC)c1', '323965-272-R-J2-PDC complex spheroid viability', 'false'),
  ('Nc1ccccc1NC(=O)c1ccc(CNC(=O)OCc2cccnc2)cc1 + CN1CCN(c2cc(C(=O)Nc3cc4cc(-c5cnn(C)c5)ccc4cn3)ccn2)CC1', '323965-272-R-J2-PDC complex spheroid viability', 'false'),
  ('CCc1c2c(nc3ccc(O)cc13)-c1cc3c(c(=O)n1C2)COC(=O)[C@]3(O)CC + CNC(=O)c1ccc(Nc2nc(OC3CCCC3)c3c(-c4ccc5nc(C)oc5c4)c[nH]c3n2)c(OC)c1', '323965-272-R-J2-PDC complex spheroid viability', 'true'),
  ('COc1c(OCCCN2CCOCC2)ccc2c3n(c(=NC(=O)c4cnc(N)nc4)nc12)CCN3 + CN1CCN(c2cc(C(=O)Nc3cc4cc(-c5cnn(C)c5)ccc4cn3)ccn2)CC1', '323965-272-R-J2-PDC complex spheroid viability', 'true'),
  ('COc1c(OCCCN2CCOCC2)ccc2c3n(c(=NC(=O)c4cnc(N)nc4)nc12)CCN3 + CNC(=O)c1ccc(Nc2nc(OC3CCCC3)c3c(-c4ccc5nc(C)oc5c4)c[nH]c3n2)c(OC)c1', '323965-272-R-J2-PDC complex spheroid viability', 'true'),
  ('CC1(C)CCC(CN2CCN(c3ccc(C(=O)NS(=O)(=O)c4ccc(NCC5CCOCC5)c([N+](=O)[O-])c4)c(Oc4cnc5[nH]ccc5c4)c3)CC2)=C(c2ccc(Cl)cc2)C1 + CNC(=O)c1ccc(Nc2nc(OC3CCCC3)c3c(-c4ccc5nc(C)oc5c4)c[nH]c3n2)c(OC)c1', '323965-272-R-J2-PDC complex spheroid viability', 'false'),
  ('C=C(F)C(=O)N1CCN(c2nc(OCC3CCCN3C)nc3c2CCN(c2cccc4cccc(Cl)c24)C3)CC1CC#N (stereo not given) + CN1CCN(c2cc(C(=O)Nc3cc4cc(-c5cnn(C)c5)ccc4cn3)ccn2)CC1', '323965-272-R-J2-PDC complex spheroid viability', 'true'),
  ('CC(=O)O[C@H]1C(=O)[C@@]2(C)[C@H]([C@H](OC(=O)c3ccccc3)[C@]3(O)C[C@H](OC(=O)[C@H](O)[C@@H](NC(=O)c4ccccc4)c4ccccc4)C(C)=C1C3(C)C)[C@]1(OC(C)=O)CO[C@@H]1C[C@@H]2O + CNC(=O)c1ccc(Nc2nc(OC3CCCC3)c3c(-c4ccc5nc(C)oc5c4)c[nH]c3n2)c(OC)c1', '323965-272-R-J2-PDC complex spheroid viability', 'true'),
  ('Nc1ccn(C2OC(CO)C(O)C2(F)F)c(=O)n1 (stereo not given) + CN1CCN(c2cc(C(=O)Nc3cc4cc(-c5cnn(C)c5)ccc4cn3)ccn2)CC1', '323965-272-R-J2-PDC complex spheroid viability', 'true'),
  ('O=C(c1cc(Cc2n[nH]c(=O)c3ccccc23)ccc1F)N1CCN(C(=O)C2CC2)CC1 + CNC(=O)c1ccc(Nc2nc(OC3CCCC3)c3c(-c4ccc5nc(C)oc5c4)c[nH]c3n2)c(OC)c1', '323965-272-R-J2-PDC complex spheroid viability', 'false'),
  ('CCc1c2c(nc3ccc(O)cc13)-c1cc3c(c(=O)n1C2)COC(=O)[C@]3(O)CC + CN1CCN(c2cc(C(=O)Nc3cc4cc(-c5cnn(C)c5)ccc4cn3)ccn2)CC1', '323965-272-R-J2-PDC complex spheroid viability', 'true'),
  ('CC(Nc1ccc2c(c1)OCCn1cc(N3C(=O)OCC3C(F)F)nc1-2)C(N)=O (stereo not given) + CNC(=O)c1ccc(Nc2nc(OC3CCCC3)c3c(-c4ccc5nc(C)oc5c4)c[nH]c3n2)c(OC)c1', '323965-272-R-J2-PDC complex spheroid viability', 'false'),
  ('COc1cccc2c1C(=O)c1c(O)c3c(c(O)c1C2=O)CC(O)(C(=O)CO)CC3OC1CC(N)C(O)C(C)O1 (stereo not given) + CN1CCN(c2cc(C(=O)Nc3cc4cc(-c5cnn(C)c5)ccc4cn3)ccn2)CC1', '323965-272-R-J2-PDC complex spheroid viability', 'true'),
  ('C#Cc1c(F)ccc2cc(O)cc(-c3ncc4c(N5CC6CCC(C5)N6)nc(OCC56CCCN5CC(F)C6)nc4c3F)c12 (stereo not given) + CNC(=O)c1ccc(Nc2nc(OC3CCCC3)c3c(-c4ccc5nc(C)oc5c4)c[nH]c3n2)c(OC)c1', '323965-272-R-J2-PDC complex spheroid viability', 'false'),
  ('CCCS(=O)(=O)Nc1ccc(F)c(C(=O)c2c[nH]c3ncc(-c4ccc(Cl)cc4)cc23)c1F + CN1CCN(c2cc(C(=O)Nc3cc4cc(-c5cnn(C)c5)ccc4cn3)ccn2)CC1', '323965-272-R-J2-PDC complex spheroid viability', 'false'),
  ('O=c1[nH]cc(F)c(=O)[nH]1 + CNC(=O)c1ccc(Nc2nc(OC3CCCC3)c3c(-c4ccc5nc(C)oc5c4)c[nH]c3n2)c(OC)c1', '323965-272-R-J2-PDC complex spheroid viability', 'false');

Numbers sourced from PubChem BioAssay AID2060619.
